Biological target: UniProt:Q96SW2
Sequence (Q96SW2 whole entry): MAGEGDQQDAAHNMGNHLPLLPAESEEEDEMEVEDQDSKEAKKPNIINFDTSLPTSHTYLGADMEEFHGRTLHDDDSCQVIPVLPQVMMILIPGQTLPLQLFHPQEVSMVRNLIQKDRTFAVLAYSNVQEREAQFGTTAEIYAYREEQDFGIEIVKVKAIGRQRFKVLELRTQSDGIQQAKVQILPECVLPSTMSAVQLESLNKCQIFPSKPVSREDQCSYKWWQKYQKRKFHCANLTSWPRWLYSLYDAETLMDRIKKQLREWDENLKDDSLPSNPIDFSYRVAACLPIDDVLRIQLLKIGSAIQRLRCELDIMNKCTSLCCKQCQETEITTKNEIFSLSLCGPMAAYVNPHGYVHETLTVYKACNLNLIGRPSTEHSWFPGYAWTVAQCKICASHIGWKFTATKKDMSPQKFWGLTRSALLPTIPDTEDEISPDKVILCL
Sequence (Q16531 whole entry partner): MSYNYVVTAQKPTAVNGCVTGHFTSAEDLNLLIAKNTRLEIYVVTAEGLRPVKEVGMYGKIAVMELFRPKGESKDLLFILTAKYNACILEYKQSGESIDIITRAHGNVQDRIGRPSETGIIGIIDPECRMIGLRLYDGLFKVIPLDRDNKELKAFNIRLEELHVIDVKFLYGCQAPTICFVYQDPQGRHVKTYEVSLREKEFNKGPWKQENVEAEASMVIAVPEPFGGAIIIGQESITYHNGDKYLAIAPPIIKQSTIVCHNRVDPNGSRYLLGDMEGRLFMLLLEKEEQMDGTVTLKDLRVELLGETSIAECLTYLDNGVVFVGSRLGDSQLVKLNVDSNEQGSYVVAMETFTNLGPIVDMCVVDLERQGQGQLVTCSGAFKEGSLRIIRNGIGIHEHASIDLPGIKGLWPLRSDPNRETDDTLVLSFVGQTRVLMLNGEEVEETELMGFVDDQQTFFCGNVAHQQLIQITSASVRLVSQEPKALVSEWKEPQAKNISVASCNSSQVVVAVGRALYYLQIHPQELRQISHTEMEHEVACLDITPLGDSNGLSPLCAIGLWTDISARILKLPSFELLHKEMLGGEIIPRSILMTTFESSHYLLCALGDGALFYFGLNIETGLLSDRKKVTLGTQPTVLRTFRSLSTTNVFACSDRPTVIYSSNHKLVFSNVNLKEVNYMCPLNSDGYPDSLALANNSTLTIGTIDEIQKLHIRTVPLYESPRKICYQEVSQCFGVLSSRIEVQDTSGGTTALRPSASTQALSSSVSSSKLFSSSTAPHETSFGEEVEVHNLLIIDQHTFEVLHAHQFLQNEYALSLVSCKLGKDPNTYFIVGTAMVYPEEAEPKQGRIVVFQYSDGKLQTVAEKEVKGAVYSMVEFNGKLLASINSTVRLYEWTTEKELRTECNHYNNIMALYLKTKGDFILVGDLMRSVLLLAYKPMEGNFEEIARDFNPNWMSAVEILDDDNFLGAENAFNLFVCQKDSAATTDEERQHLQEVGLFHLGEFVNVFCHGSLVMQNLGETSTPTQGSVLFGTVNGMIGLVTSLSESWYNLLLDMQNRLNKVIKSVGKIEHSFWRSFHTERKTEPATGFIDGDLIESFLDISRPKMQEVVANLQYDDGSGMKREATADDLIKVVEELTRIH
Experiment: Cereblon (CRBN) target engagement, NanoBRET TE Intracellular E3 Ligase Assay in transfected HEK-293T cells
Settings: read-out: CRBN Binding EC50
measured_attribute: pEC50
Numbers only, as −log10 of the molar value.

Consider the worked cases shown below.
O=C1CCC(N2Cc3cc(O[C@@H]4CCCC[C@H]4N4CC(c5ccc(C(F)(F)F)cn5)C4)ccc3C2=O)C(=O)N1 (single isomer, unassigned) [Compound 129-B]; 7.42
O=C1CCC(N2Cc3cc(O[C@@H]4CCCC[C@@H]4N4CC(c5ncc(C(F)(F)F)cn5)C4)ccc3C2=O)C(=O)N1 (single isomer, unassigned) [Compound 119-B]; 7.62
O=C1CCC(N2Cc3cc(OC4CCC[C@@H]4N4CC(c5cncnc5)C4)ccc3C2=O)C(=O)N1 (mixture of isomers) [Compound 196-B]; 6.67
O=C1CCC(N2Cc3cc(OC4CCCC4N4CC(c5ncc(Cl)cn5)C4)ccc3C2=O)C(=O)N1 (stereo not shown); 7.70
Cc1cnc(C2CN([C@H]3CCCC[C@@H]3Oc3ccc4c(c3)CN(C3CCC(=O)NC3=O)C4=O)C2)o1 (mixture of isomers); 7.66
CC1(C(=O)N2CCC(C3CN([C@H]4CCCC[C@@H]4Oc4ccc5c(c4)CN(C4CCC(=O)NC4=O)C5=O)C3)CC2)CCCC1 (stereo partly shown); 8.15

Consider now this further compound.
Query :: pEC50 lookup needed for O=C1CCC(N2Cc3cc(O[C@@H]4CCC[C@@H]4N4CC(c5ccnc6ccccc56)C4)ccc3C2=O)C(=O)N1 (stereo partly shown) , thanks.
Result :: 7.77

Where do the numbers come from? From patent US20250100996A1.
